# method_summary: Displacement of (-)-[3H]dihydroalprenolol from beta adrenergic receptor in frog erythrocyte membrane after 10 mins by liquid scintillation counting analysis
# Format: cell membranes, Anura
# key: entry, value: pKd
pKd (log units): -log10 of the concentration in mol/L.

compound | result
C=CCc1ccccc1OCC(O)CNC(C)C (configuration not stated) | 8.60

Query :: Retrieve pKd measured for CCCc1ccccc1OCC(O)CNC(C)C (single isomer, unassigned; (-)) and print it.
Result :: 8.60
